Data export: AC50 values recorded with Sodium-dependent noradrenaline transporter (Homo sapiens, UniProt P23975).
Sequence (P23975 whole entry): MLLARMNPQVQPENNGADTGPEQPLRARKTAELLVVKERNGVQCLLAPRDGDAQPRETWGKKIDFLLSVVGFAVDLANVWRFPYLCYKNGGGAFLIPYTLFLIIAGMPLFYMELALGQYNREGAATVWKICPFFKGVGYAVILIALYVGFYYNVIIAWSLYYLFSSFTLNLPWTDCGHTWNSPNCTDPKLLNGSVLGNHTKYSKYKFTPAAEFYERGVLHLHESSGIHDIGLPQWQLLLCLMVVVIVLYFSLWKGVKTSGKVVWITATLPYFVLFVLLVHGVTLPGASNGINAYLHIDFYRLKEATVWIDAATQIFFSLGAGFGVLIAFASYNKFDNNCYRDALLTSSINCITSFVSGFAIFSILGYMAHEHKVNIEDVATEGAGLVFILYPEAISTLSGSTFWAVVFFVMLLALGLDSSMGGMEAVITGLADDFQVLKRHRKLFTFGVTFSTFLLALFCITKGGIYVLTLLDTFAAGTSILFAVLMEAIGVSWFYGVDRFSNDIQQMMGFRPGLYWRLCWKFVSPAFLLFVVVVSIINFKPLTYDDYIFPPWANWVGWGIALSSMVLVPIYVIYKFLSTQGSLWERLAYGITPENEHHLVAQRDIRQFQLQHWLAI

compound	systemUnderTest	parameter	reportedResult
CCC(CC)(CC(=O)Nc1cccc(/C=C/c2nc(C3CCC3)cs2)c1)C(=O)O	Sodium-dependent noradrenaline transporter (Homo sapiens, UniProt P23975)	AC50	> 30 µM

In: Under Sodium-dependent noradrenaline transporter (Homo sapiens, UniProt P23975): report AC50 of Nc1nc(Cl)nc2c1ncn2[C@H]1C[C@H](O)[C@@H](CO)O1 [CLADRIBINE] .
Out: > 30 µM

In: Provide the reported AC50 (system: Sodium-dependent noradrenaline transporter (Homo sapiens, UniProt P23975)) for `CC=CC(=O)N(CC)c1ccccc1C`; note: assay procedure not described here
Out: > 10 µM

In: Identify measured AC50 obtained with Sodium-dependent noradrenaline transporter (Homo sapiens, UniProt P23975) for Cc1cccc(C(C)c2cnc[nH]2)c1C (stereo not given) [MEDETOMIDINE] .
Out: > 30 µM

In: Identify measured AC50 obtained with Sodium-dependent noradrenaline transporter (Homo sapiens, UniProt P23975) for CCCSc1ccc2nc(NC(=O)OC)[nH]c2c1 [ALBENDAZOLE] .
Out: > 30 µM

----------
A short record of AC50 observed with UniProt:P35439 follows.

Worked examples, 5 compounds total:
compound	AC50
NCC(=O)CCC(=O)O	> 30 µM
CC(CC(c1ccccc1)c1ccccc1)NC(C)(C)C (centres undefined)	> 30 µM
CO[C@@H]1[C@@H](O[C@@H]2O[C@H](C)[C@@H](O[C@H]3C[C@@](C)(O)[C@@H](OC(=O)CC(C)C)[C@H](C)O3)[C@H](N(C)C)[C@H]2O)[C@@H](CC=O)C[C@@H](C)[C@@H](O)/C=C/C=C/C[C@@H](C)OC(=O)C[C@H]1OC(C)=O	> 10 µM
COc1cc2nc(N3CCN(C(=O)c4ccco4)CC3)nc(N)c2cc1OC	> 10 µM
CCN1CCN(C(=O)N[C@@H](C(=O)N[C@@H]2C(=O)N3C(C(=O)O)=C(CSc4nnnn4C)CS[C@H]23)c2ccc(O)cc2)C(=O)C1=O	> 30 µM

Here is another compound to look at.
In: Give AC50; test system UniProt:P35439; compound `Clc1ccc(CCCOCCCN2CCCCC2)cc1`
Out: > 30 µM

----------
Recorded AC50 values for a group of compounds are listed next.
target: Muscarinic acetylcholine receptor M1 (Homo sapiens); assay type: functional; note: assay procedure not described here
Sequence (P11229 whole entry): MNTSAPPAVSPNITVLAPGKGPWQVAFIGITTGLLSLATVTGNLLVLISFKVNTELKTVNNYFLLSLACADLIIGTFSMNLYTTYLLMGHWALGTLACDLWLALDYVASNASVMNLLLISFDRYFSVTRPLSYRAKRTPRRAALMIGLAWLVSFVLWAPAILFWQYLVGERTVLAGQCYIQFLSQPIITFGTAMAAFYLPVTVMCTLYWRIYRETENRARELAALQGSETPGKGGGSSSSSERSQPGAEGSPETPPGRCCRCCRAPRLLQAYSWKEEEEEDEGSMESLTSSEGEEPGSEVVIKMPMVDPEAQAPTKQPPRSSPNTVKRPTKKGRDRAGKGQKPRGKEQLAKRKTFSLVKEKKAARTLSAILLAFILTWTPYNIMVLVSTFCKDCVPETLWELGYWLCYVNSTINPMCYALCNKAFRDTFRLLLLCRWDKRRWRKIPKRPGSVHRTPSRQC

Here is how some compounds turned out for AC50.
compound	AC50
Cc1nnc2n1-c1ccc(Cl)cc1C(c1ccccc1Cl)=NC2	> 10 µM
Cc1cccc(C(C)c2cnc[nH]2)c1C (configuration not stated)	> 30 µM
CC(CC(c1ccccc1)c1ccccc1)NC(C)(C)C (configuration not stated)	1.4 µM
COc1ccc(CC(C)(C)NC[C@H](O)c2cc(O)cc3c2OCC(=O)N3)cc1	> 30 µM

In: Determine from records and report AC50 for `CN(C)CCC=C1c2ccccc2C=Cc2ccccc21`
Out: 0.18 µM

In: Quickly give me recorded AC50 for CC(Oc1c(Cl)cccc1Cl)C1=NCCN1 (configuration not stated)
Out: > 30 µM

----------
This section presents compounds with their documented AC50 values.
biological target: Prostaglandin G/H synthase 1 (Homo sapiens, UniProt P23219); type: functional; note: assay procedure not described here
Sequence (P23219 whole entry): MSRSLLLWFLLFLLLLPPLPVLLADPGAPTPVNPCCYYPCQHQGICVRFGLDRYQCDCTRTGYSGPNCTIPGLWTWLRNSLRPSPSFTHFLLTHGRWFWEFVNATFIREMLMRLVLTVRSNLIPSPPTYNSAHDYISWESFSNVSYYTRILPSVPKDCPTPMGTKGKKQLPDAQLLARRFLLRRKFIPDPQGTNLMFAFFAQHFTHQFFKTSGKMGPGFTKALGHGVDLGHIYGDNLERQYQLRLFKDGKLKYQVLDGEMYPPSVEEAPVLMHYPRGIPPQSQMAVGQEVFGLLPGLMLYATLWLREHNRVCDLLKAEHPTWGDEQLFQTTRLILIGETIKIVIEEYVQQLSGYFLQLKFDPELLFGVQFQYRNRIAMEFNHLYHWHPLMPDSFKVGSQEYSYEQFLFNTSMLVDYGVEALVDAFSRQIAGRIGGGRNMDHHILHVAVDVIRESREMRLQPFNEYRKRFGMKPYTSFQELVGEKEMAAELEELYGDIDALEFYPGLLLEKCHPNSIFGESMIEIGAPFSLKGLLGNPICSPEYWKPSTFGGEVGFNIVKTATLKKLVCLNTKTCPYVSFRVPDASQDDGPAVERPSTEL

compound	AC50
OB1OCc2cc(F)ccc21	> 30 µM
O=c1[nH]c(=O)n([C@H]2C[C@H](O)[C@@H](CO)O2)cc1F	> 30 µM

Now look at this entry.
In: Specify measured AC50 for CC[C@H]1CN2CC[C@H]1C[C@H]2[C@H](O)c1ccnc2ccc(OC)cc12 [HYDROQUININE] .
Out: > 30 µM
